Molecular target: hTRPA1 (Homo sapiens, UniProt O75762)
Sequence (O75762 whole entry): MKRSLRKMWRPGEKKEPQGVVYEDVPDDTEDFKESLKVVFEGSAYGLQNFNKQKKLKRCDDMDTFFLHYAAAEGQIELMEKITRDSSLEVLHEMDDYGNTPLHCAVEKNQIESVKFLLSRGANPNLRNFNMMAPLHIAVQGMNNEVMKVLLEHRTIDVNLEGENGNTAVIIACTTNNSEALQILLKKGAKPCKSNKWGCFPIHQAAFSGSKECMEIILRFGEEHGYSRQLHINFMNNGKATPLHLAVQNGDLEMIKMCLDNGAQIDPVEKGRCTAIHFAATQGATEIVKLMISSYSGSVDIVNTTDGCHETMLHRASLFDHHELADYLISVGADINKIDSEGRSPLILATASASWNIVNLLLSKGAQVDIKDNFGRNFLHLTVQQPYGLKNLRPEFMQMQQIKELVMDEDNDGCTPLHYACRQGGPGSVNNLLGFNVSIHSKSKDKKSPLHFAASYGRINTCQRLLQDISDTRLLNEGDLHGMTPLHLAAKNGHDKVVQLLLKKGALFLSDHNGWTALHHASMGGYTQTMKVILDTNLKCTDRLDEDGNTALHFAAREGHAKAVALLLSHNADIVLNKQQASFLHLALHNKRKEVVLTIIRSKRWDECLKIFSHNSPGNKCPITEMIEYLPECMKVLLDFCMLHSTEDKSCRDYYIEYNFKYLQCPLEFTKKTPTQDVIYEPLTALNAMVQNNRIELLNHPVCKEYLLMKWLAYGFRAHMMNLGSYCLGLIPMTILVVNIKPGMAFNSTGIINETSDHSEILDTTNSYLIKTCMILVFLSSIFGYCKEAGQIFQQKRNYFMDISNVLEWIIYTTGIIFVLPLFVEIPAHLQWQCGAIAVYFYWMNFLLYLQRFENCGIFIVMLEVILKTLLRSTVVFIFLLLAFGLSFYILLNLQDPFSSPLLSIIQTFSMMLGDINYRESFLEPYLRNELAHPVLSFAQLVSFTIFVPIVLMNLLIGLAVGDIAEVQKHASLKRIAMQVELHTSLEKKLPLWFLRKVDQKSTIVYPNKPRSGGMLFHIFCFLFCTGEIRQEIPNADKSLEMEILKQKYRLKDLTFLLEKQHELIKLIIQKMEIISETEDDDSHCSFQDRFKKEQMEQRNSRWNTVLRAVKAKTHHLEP
Assay: IC50 determination, dose response calcium flux (FLIPR) assay, ChanTest hTRPA1-CHO stably transfected cell line
Settings: CHO-K1 Tet-On hTRPA1 cells, 30' preincubation, agonist cinnamaldehyde final 100 uM
Counter-ions that a name gives are not always drawn.
Readout name: IC50 (nM)

Compound	Output unit	Data value
O=C(Nc1ccc(Cl)cn1)O[C@@H](CN1CCC[C@H](c2cccc(C(F)(F)F)c2)C1)C(F)(F)F [Example 58, hydrochloride]	nM	174
O=C(Nc1ccc(Cl)cc1)O[C@@H](CN1CCCC(COc2ccc(F)cc2)C1)C(F)(F)F (stereo partly shown) [Example 51, hydrochloride]	nM	178
O=C(Nc1ccc(Cl)cc1)OC(CN1CCCC(C2CCCCC2)C1)C(F)(F)F (stereo not shown)	nM	883

a: O=C(C[C@@H](CN1CCC[C@H](c2cccc(C(F)(F)F)c2)C1)C(F)(F)F)Nc1ccc(Cl)cc1 (racemic)
b: O=C(Nc1ccc(Cl)cc1)O[C@@H](CN1CCC[C@H](Oc2ccncc2)C1)C(F)(F)F (racemic) [Example 22a]
Qu. Sort a and b by IC50 descending and give the first. Record your answer as the label of the chosen record.
Ans. b
(b: 4150 nM, a: 135 nM)

a: O=C(Nc1ccc(Cl)cc1)OC(CN1CCCC(OCc2ccccc2)C1)C(F)(F)F (stereo not shown)
b: CCOc1cccc(C2CCCN(C[C@H](OC(=O)Nc3ccc(Cl)cc3)C(F)(F)F)C2)c1 (stereo partly shown) [Example 43, hydrochloride]
Qu. Sort a and b by IC50 descending and give the first. Record your answer as the label of the chosen record.
Ans. b
(b: 298 nM, a: 137 nM)

---

Target: hTRPA1 (Homo sapiens)
Construct: host or cells: CHO-K1 Tet-On, Clone 20 (Chinese Hamster Ovary cells, inducible expression)
Test: IC50 determination, dose response calcium flux (FLIPR) assay, ChanTest hTRPA1-CHO stably transfected cell line
Format: cell-based
Conditions: CHO-K1 Tet-On hTRPA1 cells, 30' preincubation, agonist cinnamaldehyde final 100 uM
pIC50: −log10 of the molar value. Structures can show the parent of a compound that is named as a salt.
Readout name: pIC50

Use these answered entries as a reference point.
Molecule	Data value
N#CC1CCCN(CC(OC(=O)Nc2ccc(Cl)cc2)C(F)(F)F)C1 (centres unmarked)	6.56
COc1ccccc1C1CCCN(CC(OC(=O)Nc2ccc(Cl)cc2)C(F)(F)F)C1 (centres unmarked)	5.30

1: O=C(Nc1ccc(Cl)cc1)O[C@@H](CN1CCCC(Oc2ccc(Cl)cc2)C1)C(F)(F)F (some centres unmarked) [Example 45, hydrochloride]
2: COc1cccc(CC2CCCN(C[C@H](OC(=O)Nc3ccc(Cl)cc3)C(F)(F)F)C2)c1 (some centres unmarked)
Qu. Param metric = pIC50; output whichever of 1 , 2 has the minimum value. Record your answer as the label of the chosen record.
Ans. 2
(2: 6.26, 1: 6.86)

---

Target: hTRPA1 (Homo sapiens)
Assay: IC50 determination, dose response calcium flux (FLIPR) assay, ChanTest hTRPA1-CHO stably transfected cell line
Details: CHO-K1 Tet-On hTRPA1 cells, 30' preincubation, agonist cinnamaldehyde final 100 uM
pIC50: −log10 of the molar value. Where a name gives a salt, the structure may show the parent alone.
Readout name: pIC50

Use these answered entries as a reference point.
Compound	Tgt	pIC50
O=C(Nc1ccc(Cl)cc1)OC(CN1CCCC(C(F)(F)F)C1)C(F)(F)F (centres unmarked) [Example 15]	hTRPA1 (Homo sapiens)	6.25
O=C(Nc1ccc(F)c(Cl)c1)O[C@@H](CN1CCCC(c2cccc(C(F)(F)F)c2)C1)C(F)(F)F (some centres unmarked) [Example 65]	hTRPA1 (Homo sapiens)	6.59
O=C(Nc1ccc(Cl)nc1)O[C@@H](CN1CCCC(c2cccc(C(F)(F)F)c2)C1)C(F)(F)F (some centres unmarked) [Example 68]	hTRPA1 (Homo sapiens)	6.72
O=C(Nc1ccc(Cl)cc1)O[C@@H](CN1CCCC(c2ccc(C(F)(F)F)nc2)C1)C(F)(F)F (some centres unmarked) [Example 57, hydrochloride]	hTRPA1 (Homo sapiens)	6.47
O=C(Nc1ccc(Cl)cc1)O[C@@H](CN1CCCC(c2cccc(C(F)(F)F)c2)C1)C(F)(F)F (some centres unmarked) [Example 29, hydrochloride]	hTRPA1 (Homo sapiens)	7.45

1: O=C(Nc1ccc(Cl)cc1)O[C@@H](CN1CCC[C@@H](Cc2ccccc2)C1)C(F)(F)F (single isomer, unassigned) [Example 10]
2: O=C(Nc1ccc(Cl)cc1)O[C@@H](CN1CCC(F)(F)CC1)C(F)(F)F [Example 33, hydrochloride]
3: COc1cccc(C2CCCN(C[C@H](OC(=O)Nc3ccc(F)cc3)C(F)(F)F)C2)c1 (some centres unmarked) [Example 61, hydrochloride]
Qu. Put the items in order so that reported pIC50 rises from first to last. Use the labels to give the requested order.
Ans. 1, 3, 2
(1: 5.87, 3: 6.56, 2: 7.11)

a: Cc1noc(C2CCCN(C[C@H](OC(=O)Nc3ccc(Cl)cc3)C(F)(F)F)C2)n1 (mixture of isomers) [Example 28, hydrochloride]
b: O=C(Nc1ccc(Cl)cc1)OC(CN1CCCC(c2ccccc2)C1)C(F)(F)F (centres unmarked) [Example 36, hydrochloride]
c: O=C(Nc1ccc(Cl)cc1)O[C@H](CN1CCC[C@@H](c2ccccc2)C1)C(F)(F)F [Example 8, hydrochloride]
Qu. Put the items in order so that reported pIC50 rises from first to last. Use the labels to give the requested order.
Ans. c, a, b

A: O=C(Nc1ccc(Cl)cc1)O[C@@H](CN1CCCC(c2cccc(F)c2)C1)C(F)(F)F (some centres unmarked) [Example 41, hydrochloride]
B: O=C(Nc1ccc(Cl)cc1)O[C@@H](CN1CCC[C@@H](c2ccccc2)C1)C(F)(F)F [Example 6, hydrochloride]
Qu. Param metric = pIC50; output whichever of A , B has the minimum value. Record your answer as the label of the chosen record.
Ans. B
